// provenance: patent EP1394219A1

Experiment: Fluorescence and UV absorbance properties of the dyes in phosphate buffers of different pH, pKa from emission intensity ratio I/Io
Details: fluorescence emission maximum, phosphate buffer

{"compound": "CC[N+]1=C(/C=C/C=C/C=C2Nc3ccc(CC(=O)O)cc3C2(C)C)C(C)(C)c2cc(S(=O)(=O)[O-])ccc21 [Compound 5]", "λEm(nm)": 665}
{"compound": "CC1(C)\\C(=C/C=C/C=C/c2sc3ccccc3[n+]2CCCCCC(=O)O)Nc2ccc(S(=O)(=O)O)cc21 [Compound 7]", "λEm(nm)": 670}
{"compound": "CC1(C)/C(=C\\C=C\\c2sc3ccccc3[n+]2CCCCS(=O)(=O)O)Nc2ccc(CC(=O)O)cc21 [Compound 6]", "λEm(nm)": 580}
{"compound": "CC1(C)C(=C/C=C/C=C/C2=[N+](CCCCS(=O)(=O)[O-])c3ccc(CC(=O)O)cc3C2(C)C)Nc2ccc(S(=O)(=O)O)cc21 [Compound 4]", "λEm(nm)": 665}
{"compound": "CC1(C)C(=C/C=C/C=C/C2=[N+](CCCCCC(=O)NN)c3ccc(S(=O)(=O)[O-])cc3C2(C)C)Nc2ccc(S(=O)(=O)O)cc21 [Compound 10]", "λEm(nm)": 660}

---

Assay: Fluorescence and UV absorbance properties of the dyes in phosphate buffers of different pH, pKa from emission intensity ratio I/Io
Settings: fluorescence emission maximum, phosphate buffer
parameter: λEm(nm)

{"molecule": "CC1(C)C(/C=C/C=C/C=C2Nc3ccc4c(S(=O)(=O)O)cc(S(=O)(=O)O)cc4c3C2(C)C)=[N+](CCCCCC(=O)O)c2ccc(S(=O)(=O)[O-])cc21 [Compound 9]", "parameter": "λEm(nm)", "number": 680}
{"molecule": "C[N+]1=C(/C=C/C=C/C=C2/Nc3ccc(S(=O)(=O)O)cc3C2(C)C)C(C)(C)c2cc(CN)ccc21 [Compound 8]", "parameter": "λEm(nm)", "number": 665}
{"molecule": "CC1(C)C(=CC=CC2=[N+](CCCCCC(=O)O)c3ccc(S(=O)(=O)[O-])cc3C2(C)C)Nc2ccc(S(=O)(=O)O)cc21 [Compound 3.39]", "parameter": "λEm(nm)", "number": 565}

---

Settings: phosphate buffer, pH 5.85

{"structureAsSmiles": "CC1(C)C(=C/C=C/C=C/C2=[N+](CCCCCC(=O)NN)c3ccc(S(=O)(=O)[O-])cc3C2(C)C)Nc2ccc(S(=O)(=O)O)cc21", "pKa": 7.5}
{"structureAsSmiles": "CC1(C)C(=C/C=C/C=C/C2=[N+](CCCCS(=O)(=O)[O-])c3ccc(CC(=O)O)cc3C2(C)C)Nc2ccc(S(=O)(=O)O)cc21", "pKa": 6.4}
{"structureAsSmiles": "CC1(C)C(=CC=CC2=[N+](CCCCCC(=O)O)c3ccc(S(=O)(=O)[O-])cc3C2(C)C)Nc2ccc(S(=O)(=O)O)cc21", "pKa": 7.75}
{"structureAsSmiles": "CC1(C)C(/C=C/C=C/C=C2Nc3ccc4c(S(=O)(=O)O)cc(S(=O)(=O)O)cc4c3C2(C)C)=[N+](CCCCCC(=O)O)c2ccc(S(=O)(=O)[O-])cc21", "pKa": 7.25}
{"structureAsSmiles": "CC[N+]1=C(/C=C/C=C/C=C2Nc3ccc(CC(=O)O)cc3C2(C)C)C(C)(C)c2cc(S(=O)(=O)[O-])ccc21", "pKa": 7.5}
